Tested on: Candida glabrata ATCC 36583
assay info: MIC assay (CLSI M27-A3), Candida glabrata ATCC 36583
Assay type: cell-based
settings: Nakaseomyces glabratus, ATCC36583; second batch; read-out: MIC, Candida glabrata ATCC 36583
measured parameter: MIC (µg/mL)

molecule: CCCCCOc1ccc(-c2ccc(-c3ccc(C(=O)N[C@H]4C[C@@H](O)[C@@H](OC[C@@H](C)[N+](C)(C)C)NC(=O)[C@@H]5[C@@H](O)[C@@H](C)CN5C(=O)[C@H]([C@@H](C)O)NC(=O)[C@H]([C@H](O)[C@@H](O)c5ccc(O)cc5)NC(=O)[C@@H]5C[C@@H](O)CN5C(=O)[C@H]([C@@H](C)O)NC4=O)cc3)cc2)cc1 [Example 23]
recorded number: 0.25

molecule: CCCCCOc1ccc(-c2ccc(-c3ccc(C(=O)N[C@H]4C[C@@H](O)[C@@H](OC[C@H](C)[N+](C)(C)C)NC(=O)[C@@H]5[C@@H](O)[C@@H](C)CN5C(=O)[C@H]([C@@H](C)O)NC(=O)[C@H]([C@H](O)[C@@H](O)c5ccc(O)cc5)NC(=O)[C@@H]5C[C@@H](O)CN5C(=O)[C@H]([C@@H](C)O)NC4=O)cc3)cc2)cc1 [Example 22]
recorded number: 0.5

molecule: CCCCCOc1ccc(-c2ccc(-c3ccc(C(=O)N[C@H]4C[C@@H](O)[C@@H](O[C@@H](C)C[N+](C)(C)C)NC(=O)[C@@H]5[C@@H](O)[C@@H](C)CN5C(=O)[C@H]([C@@H](C)O)NC(=O)[C@H]([C@H](O)[C@@H](O)c5ccc(O)cc5)NC(=O)[C@@H]5C[C@@H](O)CN5C(=O)[C@H]([C@@H](C)O)NC4=O)cc3)cc2)cc1 [Example 24]
recorded number: 0.25

Source listed as patent US12466856B2.
